# Test system: PBMC cells
# Experiment Summary: Sulforhodamine B (SRB) assay, IC50 on PBMC
# Assay type: cell-based, human
# Applied Conditions: Homo sapiens, 48 h, read-out: IC50

# Molecule, IC50
data = [
    ("CC(C)C[C@H](NC(=O)[C@H](Cc1ccccc1)NC(=O)c1cnccn1)B(O)O [BTZ, bortezomib, reference compound]", "6 nM"),
]

###

# Tested on: SW-982 synovial cell line
# Experiment Summary: Sulforhodamine B (SRB) assay, IC50 on SW-982 cells
# Type: cell-based
# Applied Conditions: Homo sapiens; SW982 cells, 48 hours, SRB; read-out: IC50
pIC50: −log10 of the molar value.
Attribute Measured: pIC50

# Compound, Number
rows = [
    ("CCN(CCO)CCCC(C)Nc1ccnc2cc(Cl)ccc12 (stereo not shown) [HCQ, hydroxychloroquine, reference compound]", 4.55),
]

###

# Tested on: CQ-sensitive P. falciparum 3D7
# Experiment Summary: Anti-parasitic assay (SYBR Green I), 3D7 strain
# Type: cell-based
# Applied Conditions: Plasmodium falciparum, 3D7, 48 h
# Experimental: The CQ-resistant P. falciparum ItG and the CQ-sensitive 3D7 strains were maintained and assays carried out as described previously^25. Briefly, P. falciparum strains were maintained in RPMI 1640 culture medium supplemented with 10% human serum, 25 mM HEPES, gentamicin, and 50 μM of hypoxanthine. The anti-parasitic assay was carried out as described previously^25. […] VR23 is a derivative of CQ; a well-known anti-malarial drug. […] IC50 values were calculated by S.E.M (Table 2).

# Smiles Data, IC50 [nM]
data = [
    ("O=[N+]([O-])c1ccc(S(=O)(=O)N2CCN(c3ccnc4cc(Cl)ccc34)CC2)c([N+](=O)[O-])c1", 416),
]

Values were extracted from patent US11357774B2.
